test-system: Nuclear receptor subfamily 1 group I member 2 (Homo sapiens)
procedure-text: Human pregnane X receptor (PXR) small molecule agonists, qHTS assay (AID 1346982); note: % is set by controls: 0 for no effect and ±100 for the full control effect; nearly all actives have a fitted effect of over 35% in size
test-settings: PXR-Luc HepG2, CYP3A4 luciferase reporter, 24 h; series mostly up to 92.4 µM
Inconclusive results are not listed. Activity calls are given as the source filed them. Calls come from the whole dose curve; as a rule, active = well fitted activation curve with a large enough effect in the repeat runs; inconclusive = weak or mixed curves; inactive = no such curve, though single readings can be large or run the other way.
endpoint-label: activation

Record excerpt, results attached:
{"columns": ["structure-smiles-string", "activation"],
 "data": [
  ["O=S(O)(O)=S", "4.46% [at 8.39 µM] (inactive)"],
  ["Cc1nc2n(c(=O)c1CCN1CCC(c3noc4cc(F)ccc34)CC1)CCC[C@H]2O", "13.9% [at 19 µM] (inactive)"],
  ["CN1CCN(CC(=O)N2c3ccccc3C(=O)Nc3cccnc32)CC1", "-11.1% [at 8.39 µM] (inactive)"]
]}

Now take the following compound into account.
Give the measured activation of "C[Si](C)=O" .
16.2% [at 8.39 µM] (inactive)

----------
procedure-text: qHTS assay to identify small molecule agonists of the NFkB signaling pathway (AID 1159509); note: % is set by controls: 0 for no effect and ±100 for the full control effect
test-settings: NFkB-bla ME-180 cells, beta-lactamase FRET ratio, 5 h; series mostly up to 61 µM
Inconclusive results are not listed. The source made the active and inactive calls. The call rests on the fitted dose curve; in most records, active means well fitted curve in the direction sought with a large enough effect in the signal ratio in the repeat runs (not every such curve was filed as active); inconclusive means weak or mixed curves, or a change in a side signal; inactive means no such curve, though single readings can be large or run the other way; the % refers to the signal ratio.
endpoint-label: activation

{"columns": ["molecule", "endpoint-label", "reported-value"],
 "data": [
  ["COc1cc(NS(=O)(=O)c2ccc(N)cc2)nc(OC)n1", "activation", "inactive"],
  ["CCCOC(OCCC)OCCC", "activation", "inactive"],
  ["N#Cc1ccc(C(=O)O)cc1", "activation", "inactive"],
  ["CCn1ccc(NS(=O)(=O)c2ccc(N)cc2)nc1=O", "activation", "inactive"]
]}

Which activation reading was recorded for the molecule "CCCCCCCC/C=C\CCCCCCCC(=O)OCCCC" ?
inactive

Another: CC(C)NCC(O)COc1ccc(COCCOC(C)C)cc1 (stereo not drawn)
inactive

----------
test-system: Cytochrome P450 2C19 (Homo sapiens)
procedure-text: Cytochrome P450 Family 2 Subfamily C Member 19 (CYP2C19) small molecule antagonists: luciferase reporter qHTS assay (AID 1671197); note: nearly all actives have a fitted effect of over 65% in size
test-settings: P450-Glo CYP2C19 enzyme, luciferin luminescence, 1 h; series mostly up to 115 µM
Records with an inconclusive call do not appear. Calls of active or inactive are those of the source. The call rests on the fitted dose curve; in most records, active means well fitted inhibition curve with a large enough effect in the repeat runs; inconclusive means weak or mixed curves; inactive means no such curve, though single readings can be large or run the other way.
// one of true = active, false = inactive, no free text

{"columns": ["compound", "test-system", "label"],
 "data": [
  ["CCOC(=O)c1ncn2c1CN(C)C(=O)c1cc(F)ccc1-2", "Cytochrome P450 2C19 (Homo sapiens)", "false"],
  ["CCOC(=O)[C@H](CCc1ccccc1)N[C@@H](C)C(=O)N1C(=O)N(C)C[C@H]1C(=O)O", "Cytochrome P450 2C19 (Homo sapiens)", "false"],
  ["Nc1ncnc(Nc2ccccc2)n1", "Cytochrome P450 2C19 (Homo sapiens)", "false"],
  ["C=CCCCCCCCCCCCC", "Cytochrome P450 2C19 (Homo sapiens)", "false"],
  ["CCN1CCc2nc(N)oc2CC1", "Cytochrome P450 2C19 (Homo sapiens)", "false"]
]}

Dear colleague, could you share the recorded outcome for "CC(C)(C)NC(N)=O" when you have a moment?
true

Next entry: "CC/C=C\CC1=C(C)CCC1=O"
true

Further, for "NCCS" ?
false

// query: CCCCC(CC)COCCO (stereo not drawn)
false

// same read-out, input: "O=C(O)Cc1ccc(Cl)cc1Cl"
false

Same question for CC(C)NCC(O)COc1ccc(COCCOC(C)C)cc1 (stereo not drawn) please.
false

Also check "CC(=C(CCOC(=O)C(C)C)SSC(CCOC(=O)C(C)C)=C(C)N(C=O)Cc1cnc(C)nc1N)N(C=O)Cc1cnc(C)nc1N"
false

Field entry: "O=C(O)c1cc(Cl)cc([N+](=O)[O-])c1Cl"
false

----------
procedure-text: qHTS assay to test for compound auto fluorescence at 590 nm (red) in HepG2 cell free culture (AID 720684); note: % is set by controls: 0 for no effect and ±100 for the full control effect
test-settings: cell-free medium autofluorescence, red 540/590 nm; series mostly up to 91.3 µM
Activity calls are given as the source filed them. Calls follow the shape of the dose curve; as a rule, active = well fitted curve in the direction sought with a large enough effect in the repeat runs; inconclusive = weak or mixed curves; inactive = flat fitted curve, though single readings scatter.
endpoint-label: fluorescence, % of Rose Bengal

Example entries and their recorded answers appear below.
{"columns": ["compound", "fluorescence, % of Rose Bengal"],
 "data": [
  ["COc1nccnc1NS(=O)(=O)c1ccc(N)cc1", "inactive"],
  ["C[C@@H]1O[C@@H](O[C@@H]2[C@@H](O)[C@H](OCCc3ccc(O)c(O)c3)O[C@H](CO[C@@H]3O[C@H](CO)[C@@H](O)[C@H](O)[C@H]3O)[C@H]2OC(=O)/C=C/c2ccc(O)c(O)c2)[C@H](O)[C@H](O)[C@H]1O", "inactive"],
  ["CC(=O)N[C@@H](CCC(=O)O)C(=O)O", "inactive"],
  ["O=C(NCC(O)CO)c1c(I)c(C(=O)NCC(O)CO)c(I)c(N(CCO)C(=O)CO)c1I (stereo unspecified)", "0.343% [at 18.6 µM] (inactive)"],
  ["Cc1ccc(C=O)cc1C", "inactive"]
]}

Now look at this one.
// lookup fluorescence, % of Rose Bengal for "C=C(C)C(=O)OCCN(CC)CC"
inactive

----------
procedure-text: qHTS assay to identify small molecule agonists of the AP-1 signaling pathway (AID 1159526); note: % is set by controls: 0 for no effect and ±100 for the full control effect
test-settings: ME-180 (cervical carcinoma) AP-1-bla reporter, beta-lactamase FRET ratio, 5 h; series mostly up to 76.8 µM
Inconclusive results are not listed. Activity calls are given as the source filed them. Calls follow the shape of the full dose curve.
endpoint-label: activation

Recorded results for 4 molecules are shown here.
{"columns": ["structure-smiles-string", "activation"],
 "data": [
  ["C=C1CC/C=C(\\C)CC[C@@H]2[C@@H]1CC2(C)C", "inactive"],
  ["CCN(C)C(=O)Oc1cccc([C@H](C)N(C)C)c1", "inactive"],
  ["Cc1cc(Cl)c(C)cc1Cl", "inactive"],
  ["COc1ccc(-c2cc(=O)c3c(O)cc(O[C@@H]4O[C@H](CO[C@@H]5O[C@@H](C)[C@H](O)[C@@H](O)[C@H]5O)[C@@H](O)[C@H](O)[C@H]4O)cc3o2)cc1O", "inactive"]
]}

Which measured activation value corresponds to "CC(=O)Nc1ccc(S(=O)(=O)Cl)cc1" ?
inactive

----------
procedure-text: qHTS assay to identify small molecule agonists of the estrogen related receptor (ERR) signaling pathway from Tox21 library (AID 1224849); note: % is set by controls: 0 for no effect and ±100 for the full control effect; nearly all actives have a fitted effect of over 15% in size
test-settings: ERR reporter cell line, ONE-Glo luciferase, 18 h; at 92.4 µM (top of the series) unless noted
Experimental: National Center for Advancing Translational Sciences [NCATS] NIH Chemical Genomics Center [NCGC] U.S. Environmental Protection Agency [EPA] National Institutes of Environmental Health Sciences [NIEHS] National Toxicology Program [NTP] […] The ERR cells were dispensed at 2,000 cells/5 ul/well in 1536-well white plates using a Multidrop dispenser. […] After 30-minute incubation at room temperature, the luminescence intensity in the plates was measured using a ViewLux plate reader.
Active and inactive are the calls of the source. The call rests on the fitted dose curve.
Let's look at some compounds and their measured activity change, positive = activation.

{"columns": ["compound", "activity change, positive = activation"],
 "data": [
  ["COc1ccc(-c2cc(=O)c3c(O)cc(O[C@@H]4O[C@H](CO[C@@H]5O[C@@H](C)[C@H](O)[C@@H](O)[C@H]5O)[C@@H](O)[C@H](O)[C@H]4O)cc3o2)cc1O", "-13.8% [at 42.5 µM] (inactive)"],
  ["NC(CO)C(=O)NNCc1ccc(O)c(O)c1O (centres undefined)", "1.5% [at 42.5 µM] (inactive)"]
]}

activity change, positive = activation lookup needed for "Cc1cc2cc3c(C)cc(=O)oc3c(C)c2o1" , thanks.
7.29% [at 42.5 µM] (inactive)

Another compound: "NCCS"
-2.88% [at 42.5 µM] (inactive)

Entry to check: "CC(=C(CCOC(=O)C(C)C)SSC(CCOC(=O)C(C)C)=C(C)N(C=O)Cc1cnc(C)nc1N)N(C=O)Cc1cnc(C)nc1N"
0.537% [at 42.5 µM] (inactive)

Would you mind doing "COC(=O)CCCCCCCC(=O)OC" as well?
1.98% (inactive)

Here is the next compound: "CCn1ccc(NS(=O)(=O)c2ccc(N)cc2)nc1=O"
3.61% [at 42.5 µM] (inactive)

Next compound: COP(=O)(OC)OC(c1ccc(Cl)cc1)P(=O)(OC)OC (centres undefined)
1.9% [at 42.5 µM] (inactive)

----------
Listed below: max activation values for each entry.
test-system: Nuclear receptor subfamily 1 group I member 2 (Rattus norvegicus) (UniProt Q9R1A7)
Sequence (Q9R1A7 whole entry, looked up): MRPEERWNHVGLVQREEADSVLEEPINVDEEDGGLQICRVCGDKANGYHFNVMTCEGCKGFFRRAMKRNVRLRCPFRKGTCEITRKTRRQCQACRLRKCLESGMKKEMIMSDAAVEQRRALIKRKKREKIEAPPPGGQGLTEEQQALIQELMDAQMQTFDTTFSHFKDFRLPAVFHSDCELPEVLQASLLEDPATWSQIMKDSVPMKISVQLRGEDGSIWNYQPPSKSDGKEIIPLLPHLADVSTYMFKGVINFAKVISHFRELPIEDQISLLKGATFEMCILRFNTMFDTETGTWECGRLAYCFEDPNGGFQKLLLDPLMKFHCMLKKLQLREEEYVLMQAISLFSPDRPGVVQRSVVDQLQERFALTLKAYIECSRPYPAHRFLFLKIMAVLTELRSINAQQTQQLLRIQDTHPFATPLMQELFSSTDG
procedure-text: Rat pregnane X receptor (rPXR) activation by small molecules, qHTS assay (AID 1346983); note: % is set by controls: 0 for no effect and ±100 for the full control effect; nearly all actives have a fitted effect of over 20% in size
test-settings: rPXR luciferase reporter cells, One-Glo luminescence, 24 h; stronger effect = higher value
Results filed as inconclusive are left out.
Write it as a number; the unit % goes unstated.

Would you please look over these solved cases?
{"columns": ["structure-smiles-string", "unit-annotation", "max activation"],
 "data": [
  ["COc1ccc2c(c1)C(=O)N(CCc1ccc(S(=O)(=O)NC(=O)NC3CCCCC3)cc1)C(=O)C2(C)C", "%", -1.03],
  ["CC(=O)CCCCn1c(=O)c2c(ncn2C)n(C)c1=O", "%", -1.72],
  ["N[C@@H](COP(=O)(O)O)C(=O)O", "%", -0.35],
  ["NCCS", "%", -0.0213],
  ["NS(=O)(=O)c1ccc(NC(=O)CCC(=O)O)cc1", "%", -2.26]
]}

Form field: max activation recorded for "Cc1ccsc1/C=C/C1=NCCCN1C" with Nuclear receptor subfamily 1 group I member 2 (Rattus norvegicus) (UniProt Q9R1A7) (enter value)
-1.84

Moving on to "COc1ccc2c(c1OC)C(=O)O[C@@H]2[C@H]1c2c(cc3c(c2OC)OCO3)CCN1C"
8.04

Repeat with "Nc1ncnc(Nc2ccccc2)n1"
2.76

// repeat for "CCCCNc1ccc(C(=O)OCCN(C)C)cc1" and report
-1.52

// repeat for "CC1(C)S[C@@H]2[C@H](N=CN3CCCCCC3)C(=O)N2[C@H]1C(=O)O" and report
-0.392
